system: C. neoformans growth with sorbitol, alamar blue, 24 h; experiment: C. neoformans growth inhibition with sorbitol, dose response, mechanism study for C. neoformans lysis project, alamar blue, dry powder, set 3 (AID 743304)
MEASURED_PARAMETER: AC50

> print(dat)
                               line.notation      val
 1             S=c1[nH]c2ccccc2n1CCOc1ccccc1  24.5 µM
 2               Cc1ccc(OCCn2cnc3ccccc32)cc1  5.96 µM
 3  Cc1ccc(C(C)C)c(OCCn2c(=S)[nH]c3cccc(F)c32)c1  10.9 µM
 4      CC(C)c1ccccc1OCCn1c(=S)[nH]c2ccccc21  18.4 µM
 5          Cc1ccccc1OCCn1c(=S)[nH]c2ccccc21  31.2 µM
 6  Cc1ccc(OCCn2c(SCCO)nc3ccccc32)c(C(C)C)c1  8.48 µM
 7   CC(C)(C)c1ccccc1OCCn1c(=S)[nH]c2ccccc21  8.32 µM
 8           S=c1[nH]c2ccccc2n1CCOc1ccccc1Cl    24 µM
 9        Cc1cccc(OCCn2c(=S)[nH]c3ccccc32)c1  22.4 µM
10        Fc1cccc(OCCn2c(=S)[nH]c3ccccc32)c1  20.5 µM
11          Fc1ccccc1OCCn1c(=S)[nH]c2ccccc21  21.9 µM
12    Cc1ccc(C(C)C)c(OCCn2c(CO)nc3ccccc32)c1  33.6 µM
13        CC(C)(C)c1ccc(OCCn2cnc3ccccc32)cc1  8.05 µM
14        Fc1ccc(OCCn2c(=S)[nH]c3ccccc32)cc1  27.3 µM
15         S=c1[nH]c2ccccc2n1CCOc1ccc(Cl)cc1   6.3 µM
16  Cc1ccc(C(C)C)c(OCCn2c(=S)[nH]c3cccc(C)c32)c1  16.4 µM
17            Cc1ccc(OCCn2c(C)nc3ccccc32)cc1  6.48 µM
18        Cc1cccc2[nH]c(=S)n(CCOc3ccccc3)c12  14.2 µM
19       COc1cccc(OCCn2c(=S)[nH]c3ccccc32)c1  26.1 µM
20       Cc1cccc(OCCn2c(=S)[nH]c3ccccc32)c1C  6.75 µM
21        Cc1ccc(OCCn2c(=S)[nH]c3ccccc32)cc1  6.11 µM
22  CC(C)(C)c1ccc(OCCn2c(=S)[nH]c3ccccc32)cc1  4.94 µM
23             O=c1[nH]c2ccccc2n1CCOc1ccccc1  24.1 µM
24      CCOc1ccc(OCCn2c(=S)[nH]c3ccccc32)cc1  11.1 µM
25  Cc1ccc(C(C)C)c(OCCn2c(=S)[nH]c3cccc(Cl)c32)c1  7.25 µM

----------
Listed here are compounds together with their documented activity change, negative = inhibition.
experiment: C. neoformans growth inhibition with sorbitol, dose response, mechanism study for C. neoformans lysis project, alamar blue, dry powder, set 3 (AID 743304); details: C. neoformans growth with sorbitol, alamar blue, 24 h; at 35 µM (top of the series)
Active and inactive are the calls of the source.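 Rule for the calls: active = signal drop whose fitted half-maximal dose is no more than twice the top valid dose; inconclusive = flat curve with 30 to 70% inhibition, or unreliable fit; inactive = the rest, including rising signal.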
MEASURED_PARAMETER: activity change, negative = inhibition

> print(dat)
                               line.notation                      measured.parameter                val
 1  Cc1cccc(OCCn2c(=S)[nH]c3cc(C(F)(F)F)ccc32)c1  activity change, negative = inhibition   8.97% (inactive)
 2  Cc1ccc(C(C)C)c(OCCn2c(=S)[nH]c3c(C)cccc32)c1  activity change, negative = inhibition   34.1% (inactive)
 3         COc1ccccc1OCCn1c(=S)[nH]c2ccccc21  activity change, negative = inhibition   36.1% (inactive)
 4      CC(C)c1ccccc1NCCn1c(=S)[nH]c2ccccc21  activity change, negative = inhibition   1.72% (inactive)
 5  Cc1ccc(C(C)C)c(OCCn2c(=S)[nH]c3cc(F)ccc32)c1  activity change, negative = inhibition   9.32% (inactive)
 6     Cc1ccc(OCCn2c(=S)[nH]c3ccccc32)c(C)c1  activity change, negative = inhibition   7.99% (inactive)
 7  Cc1ccc(C(C)C)c(OCCn2c(=S)[nH]c3c(Cl)cccc32)c1  activity change, negative = inhibition  -14.9% (inactive)
 8     Cc1ccc(C)c(OCCn2c(=S)[nH]c3ccccc32)c1  activity change, negative = inhibition  -7.02% (inactive)
 9  Cc1ccc(C(C)C)c(OCCn2c(=S)[nH]c3ccc(F)cc32)c1  activity change, negative = inhibition   14.7% (inactive)
10  Cc1cccc(OCCn2c(=S)[nH]c3ccc(C(F)(F)F)cc32)c1  activity change, negative = inhibition   24.8% (inactive)
11  Cc1ccc(C(C)C)c(OCCn2c(=S)[nH]c3c(F)cccc32)c1  activity change, negative = inhibition   48.2% (inactive)

----------
assay: C. neoformans growth inhibition with sorbitol, dose response, mechanism study for C. neoformans lysis project, alamar blue, dry powder, set 3 (AID 743304); settings: C. neoformans growth with sorbitol, alamar blue, 24 h; at 35 µM (top of the series)
This listing pairs molecules with measured activity change, negative = inhibition.
MEASURED_PARAMETER: activity change, negative = inhibition (%)

> print(dat)
                              line.notation   val
1  Cc1ccc(C(C)C)c(OCCn2c(=S)[nH]c3ccc(Cl)cc32)c1  36.9
2                c1ccc(OCCn2cnc3ccccc32)cc1  39.4
3         S=c1[nH]c2cc(Cl)ccc2n1CCOc1ccccc1  17.6
